Data origin: PubChem BioAssay

- method.summary: small molecules captured by biotinylated probe aFGF10 – biochemical, small-molecule microarray, fluorescence 635/667, stem cell growth factor project, primary screen (AID 1071);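 further: score merges 667 nm spot intensity and signal to noise from triplicate slides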
- experimental.parameters: higher = more signal
// bucketize composite z-score: low band = under 0.08, middle band = from 0.08 up to 0.5, high band = 0.5 and over

Enquiry: Note: place this molecule into its band. Item: `C=C(CCCC)/C(=C/C[C@H](OC(C)=O)c1cccc(OCCO)c1)c1cnc2ccccc2c1`
Return: middle band

Enquiry: Category lookup for the molecule `COC(=O)[C@@]1(Cc2ccccc2)[C@H]2c3cc(C(=O)N(C)C)n(CCSC(=N)N)c3C[C@H]2CN1C(=O)c1ccccc1`
Return: low band

Enquiry: Which class holds `CC(C)N1C(=O)c2ccccc2[C@@H](C(=O)NCC(F)(F)F)[C@@H]1c1ccc(CO)cc1` ?
Return: low band

Enquiry: Please classify: `C=CCOC(=O)[C@@H]1[C@H]2C(=O)O[C@H](c3ccccc3)[C@H](c3ccccc3)N2[C@H](c2ccc(OCCOC(=O)[C@H]3C[C@H]4C(=O)N[C@@H](CCCCN(C)C)C(=O)N4[C@H]3c3ccc(O)cc3)cc2)[C@@]12C(=O)Nc1ccc(I)cc12`
Return: middle band

Enquiry: Into which bin does this molecule go? COc1ccc(C(O)C2C=CC3C(=O)N(c4ccccc4)C(=O)C3N2Nc2ccc([N+](=O)[O-])cc2)c2ccccc12 (stereo not given)
Return: high band

Enquiry: Hi, small favor: classify `COC(=O)[C@]1(Cc2ccccc2)N=C(c2ccc(OCCCO)cc2)O[C@@H]1c1ccccc1CN=[N+]=[N-]` by its composite z-score when you get a moment.
Return: low band

Enquiry: Hello team, could you let me know which band the following molecule falls into: `C=CCNC(=O)[C@@H]1[C@H]2C(=O)O[C@H](c3ccccc3)[C@H](c3ccccc3)N2[C@H](c2ccc(OCCO)cc2)[C@@]12C(=O)Nc1ccc(C#CC3(O)CCCCCC3)cc12`
Return: high band

Enquiry: Form: Item = CC(C)=CCCC=C(C)C(O)C1C=CC2C(=O)N(c3ccccc3)C(=O)C2N1Nc1ccc(C#N)cc1 (stereo not given) ; Class = ?
Return: middle band

Enquiry: Which category does the recorded composite z-score put CC(C)(C)OC(=O)CC[C@]1(C(=O)NCC(O)CO)N=C(c2ccc(OCCCO)cc2)O[C@H]1c1ccccc1N=[N+]=[N-] (stereo not given in full) in?
Return: high band

Enquiry: The entry to classify is `CCOC(=O)C1=CC[C@@H](c2ccc(OC)cc2)N(S(=O)(=O)c2ccc(C)cc2)[C@H]1c1ccc(C)cc1` ; which class holds it?
Return: high band

Enquiry: Consider `C=CC[C@@]12N=C(c3ccc(OCCCO)cc3)O[C@@H]1c1ccccc1N(CCC)C2=O` . To which composite z-score class does it belong?
Return: middle band

Enquiry: Hey, which category is `COC(=O)[C@@]1(Cc2ccccc2)[C@H]2c3cc(C(=O)N(C)C)n(CCO)c3C[C@H]2CN1C(=O)c1ccccc1` in, do you know?
Return: high band

Enquiry: Hello team, could you let me know which band the following molecule falls into: `O=C1O[C@@H](c2ccccc2)[C@@H](c2ccccc2)N2[C@@H](c3ccc(OCCO)cc3)[C@]3(C(=O)Nc4ccc(C#CC5(O)CCCCCC5)cc43)[C@@H](C(=O)Nc3nc4ccccc4s3)[C@H]12`
Return: high band

Enquiry: Sort `O=C(NCCN1CCOCC1)[C@@H]1c2ccccc2C(=O)N(Cc2ccccc2C(F)(F)F)[C@H]1c1ccc(CO)cc1` into one of the categories.
Return: low band

Enquiry: Class (by measured composite z-score) for `C=C(CCCC)C(=O)CC[C@H](OC(=O)c1ccccc1-c1ccccc1C(=O)O)c1ccc(OCCO)cc1`
Return: middle band

---

- method.summary: ATP-based viability of Huh7 replicon cells – cell-based, CellTiter-Glo luminescence, basal, 48 h, cytotoxicity control for HCV replication inhibitor project, primary screen (AID 1143);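 further: Huh7 hepatoma cells carrying a hepatitis C replication reporter with no stimulus; test concentration not given here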
- experimental.parameters: higher = more signal, called active from +8 up or from −8 down
I'd be grateful if you could share measured z-score for these entries.
Form rule: numeric answer, no unit written next to it.

Enquiry: Given `O=C(NC1CC1)[C@@H]1c2ccccc2C(=O)N(Cc2cc(C(F)(F)F)cc(C(F)(F)F)c2)[C@H]1c1ccc(CO)cc1` , state its recorded z-score.
Return: -4.67

Enquiry: Report z-score for `COC(=O)[C@@]1(Cc2ccccc2)[C@H]2c3cc(C(=O)N(C)C)n(Cc4ccc(S(C)(=O)=O)cc4)c3C[C@H]2CN1C(=O)c1ccccc1` please.
Return: -1.6

Enquiry: Recorded z-score of `CC(C)N1C(=O)C[C@@](C(=O)NCCN2CCOCC2)(c2ccc([N+](=O)[O-])cc2)[C@H]1c1ccc(CO)cc1` , please.
Return: -2.94

Enquiry: z-score lookup needed for `C[C@]1(C(=O)O)c2ccccc2C(=O)N(Cc2cc(F)cc(C(F)(F)F)c2)[C@H]1c1ccc(CO)cc1` , thanks.
Return: -2.56

Enquiry: For the molecule shown here, `C=C(CCCC)/C(=C/C[C@H](OC(C)=O)c1cccc(OCCO)c1)c1cnc2ccccc2c1` , give the reported z-score.
Return: -0.717

Enquiry: Quick one: z-score for `O=C1c2ccccc2[C@@]2(Cc3ccccc3N(Cc3ccccc3)C2=O)[C@H](c2ccc(CO)cc2)N1Cc1ccccc1Cl` ?
Return: -1.35

Enquiry: Suppose we examine the molecule `C=CCNC(=O)[C@H]1[C@@H]2C(=O)O[C@@H](c3ccccc3)[C@@H](c3ccccc3)N2[C@@H](c2ccc(OCCO)cc2)[C@]12C(=O)Nc1ccccc12` ; what z-score value has been reported?
Return: -1.62

Enquiry: What value of z-score has been reported for the following molecule? `C=CCNC(=O)[C@H]1[C@@H]2C(=O)O[C@@H](c3ccccc3)[C@@H](c3ccccc3)N2[C@@H](c2ccccc2OCCO)[C@]12C(=O)N(C(=O)OCCOC)c1ccc(C#Cc3ccc(OC)cc3)cc12`
Return: -2.77

Enquiry: If you can, please state the reported z-score value of `O=C1[C@H]2C=C(I)[C@H](C[C@@H]2OCCCCCCO)[C@@]12CO2` .
Return: 0.567

Enquiry: Looking for the measured z-score of C=CC1c2cc(O)c(OC)cc2CCN1C (stereo not given) , can you help?
Return: 0.235

Enquiry: Entry `CN(C)CCCC[C@@H]1NC(=O)[C@@H]2C[C@H](C(=O)NCCCCCCNC(=O)CS)[C@H](c3ccc(O)cc3)N2C1=O` has what z-score?
Return: -0.211

Enquiry: Please give the measured z-score for this molecule: `COC(=O)[C@]1(Cc2ccccc2)N=C(c2ccc(OCCCO)cc2)O[C@@H]1c1ccccc1CN=[N+]=[N-]`
Return: -5.39

Enquiry: Fill blank: measured z-score of the molecule CC(C)(C)OC(=O)CC[C@]1(C(=O)NCC(O)CO)N=C(c2ccc(OCCCO)cc2)O[C@H]1c1ccccc1N=[N+]=[N-] (stereo not given in full) is ____.
Return: -1.01

Enquiry: // lookup z-score for `C=C(COC)C(=O)CC[C@@H](OC(=O)c1ccccc1-c1ccccc1C(=O)O)c1ccc(OCCO)cc1`
Return: -0.043

Enquiry: What does the data say about its z-score? Entry: `CCCCCCc1nc(Cc2cc(OC)c(OC)c(OC)c2)cc2c1[Si](C(C)C)(C(C)C)O[C@H]2c1ccccc1`
Return: -2.1

---

- Test system: Inhibin beta A chain (activin A)
- method.summary: small molecules binding activin A – biochemical, small-molecule microarray, 635 nm fluorescence scan, primary screen (AID 1107);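 further: mouse activin A protein probed at 4.33 µg/mL on printed slides; score merges bound-protein fluorescence near 667 nm with spot signal-to-noise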
- experimental.parameters: INHBA, higher = more signal
Would you kindly list composite z-score for each of these compounds?

Enquiry: Entry `COC(=O)c1cccc([C@H]2OC(=CC(=O)OC(C)C)C[C@@H](c3cccc(C(=O)OC)c3)O2)c1` : reported composite z-score = ?
Return: 0.463

Enquiry: For the compound shown here, `COc1ccc(C(=O)Nc2ccc(CN3C(=O)[C@@]4(O[C@@H](CCn5cc(CCO)nn5)[C@H]([Si](C)(C)c5ccc(OC)cc5)[C@H]4C)c4ccccc43)cc2)cc1` , give the reported composite z-score.
Return: 1.57

Enquiry: Please give the measured composite z-score for this compound: `O=C1N(Cc2ccccc2)c2ccccc2C[C@@]12COC(c1ccc(OCCCO)cc1)=N2`
Return: 1.13

Enquiry: Please look up its composite z-score: `CC(C)N1C(=O)c2ccccc2[C@](C)(C(=O)NCC(F)(F)F)[C@@H]1c1ccc(CO)cc1`
Return: 0.177

---

- method.summary: compounds binding Alexa647 anti-His antibody – biochemical, small-molecule microarray, 635 nm fluorescence, artefact control for SMM control protein annotation, primary screen (AID 1128);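 further: score merges feature fluorescence with signal-to-noise for each printed compound spot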
- experimental.parameters: higher = more signal
experimental.endpoint: composite z-score
Answer with a number only.

Enquiry: Return reported composite z-score; argument: `C=CCOC(=O)[C@@H]1[C@H]2C(=O)O[C@H](c3ccccc3)[C@H](c3ccccc3)N2[C@H](c2ccc(OCCOC(=O)[C@H]3C[C@H]4C(=O)N5CCC[C@H]5C(=O)N4[C@H]3c3cccc(OCCO)c3)cc2)[C@@]12C(=O)Nc1ccc(I)cc12`
Return: 1.04

Enquiry: May I ask what composite z-score has been recorded for [N-]=[N+]=NCc1ccccc1[C@@H]1OC(c2ccc(OCCCO)cc2)=N[C@]1(Cc1ccccc1N=[N+]=[N-])C(=O)NCC(O)CO (some centres not stated) ?
Return: 2.76

Enquiry: Any idea what composite z-score was measured for CC(C)=CCCC(C)=CC(O)C1C=CC2C(=O)NC(=O)C2N1Nc1ccccn1 (configuration not stated) ?
Return: 1.97

Enquiry: What composite z-score value was documented for this molecule, `CC(C)N1C(=O)c2ccccc2[C@](C)(C(=O)NCC(F)(F)F)[C@@H]1c1ccc(CO)cc1` ?
Return: -0.851

Enquiry: Quick one: composite z-score for CN1C(=O)C2C(C1=O)C1C=C(c3ccc(CO)cc3)C2C(C2CC2)N1C (configuration not stated) ?
Return: 0.958

Enquiry: Look up composite z-score for this molecule: `O=C1N(Cc2ccccc2)c2ccccc2C[C@@]12COC(c1ccc(OCCCO)cc1)=N2`
Return: 1.55

Enquiry: # input molecule: C=CCC(OC(C)=O)[C@@H]1[C@@H](N(Cc2cccc3ccccc23)C(=O)c2ccc(-c3ccccc3)cc2)c2cc(OCCCO)ccc2N1C(=O)Cc1ccc2ccccc2c1 (some centres not stated) ; wanted: its composite z-score
Return: 0.203
